# TARGET OF ASSAY: Bcl-2-like protein 10 (Homo sapiens) (UniProt Q9HD36)
# Sequence (Q9HD36 whole entry, looked up): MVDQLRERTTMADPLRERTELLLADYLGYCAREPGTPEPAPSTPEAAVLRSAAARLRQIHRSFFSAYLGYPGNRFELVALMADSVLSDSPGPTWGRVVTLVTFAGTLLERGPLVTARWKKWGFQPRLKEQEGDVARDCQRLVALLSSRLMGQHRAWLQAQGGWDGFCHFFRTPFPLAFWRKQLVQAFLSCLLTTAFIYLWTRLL
# TEST PROTOCOL: TR3 peptide-Bcl-B binding displacers, biochemical primary FP assay, phenotype converters (AID 1240);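 also: 0% = Bcl-B with tracer peptide and DMSO and 100% = tracer peptide lacking Bcl-B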
# CONDITIONS: GST-Bcl-B / FITC-TR3 peptide fluorescence polarization; stronger effect = higher value; compound at 3.75 mg/L
Among all 50,000 compounds or so, about 800 (1.6%) showed an effect of 50% or more. Shown is part of a subset that was picked to be rich in strong results.
Each record here notes measured displacement.

COC(=O)c1ccc(C2C(C(=O)OC(C)C)=C(C)N=C3SCCC(=O)N32)cc1 (centres undefined)    11.3%
O=C(O)CCN1C(=O)/C(=C\c2ccc3c(c2)OCO3)SC1=S    -2.7%
O=C(O)/C=C\C(=O)Nc1ccc(C(=O)c2ccccc2)cc1    3.2%
CCOc1ccc(N2C(=O)C3CC=CCC3C2=O)cc1 (centres undefined)    14.7%
O=C1/C(=C/c2cccc([N+](=O)[O-])c2)SC(=S)N1C1CCS(=O)(=O)C1 (centres undefined)    2.2%
CCOC(=O)c1c(NC(=O)C(Cl)(Cl)Cl)sc2c1CCC2    -3.5%
CCOC(=O)c1c(NC(=O)C2CCCO2)sc(C(=O)N(CC)CC)c1C (centres undefined)    -4%
Cc1ccc(Cl)c(OCC(O)Cn2c(C)nc3ccccc32)c1 (centres undefined)    -11.5%

Ask: Which displacement value belongs to `O=C1/C(=C\c2ccc3c(c2)OCO3)SC(=S)N1CCc1ccccc1` ?
Reply: -2.3%

Ask: What do we get for `O=C(Nc1ccc(Nc2ccccc2)cc1)c1ccc(Cl)cc1Cl` ?
Reply: -13.5%

Ask: What do we get for `CCOC(=O)C1=C(O)/C(=C/c2ccc(O)c(OCC)c2)SC1=Nc1ccc([N+](=O)[O-])cc1` ?
Reply: -5.5%

Ask: What do we get for CC1=C(C(=O)Nc2cc(Cl)ccc2C)C(c2ccccc2Br)NC(=S)N1 (centres undefined) ?
Reply: -8.3%

Ask: What do we get for `O=C(CSc1nnc(-c2ccncc2)n1-c1ccccc1)c1ccc(F)cc1` ?
Reply: -2.7%

Ask: What do we get for COc1ccc(C2CC(=O)C3=C(C2)Nc2ccccc2NC3c2cccc3ccccc23)cc1OC (centres undefined) ?
Reply: 1.8%

---

Each record here notes measured displacement.
# TARGET OF ASSAY: Bcl-2-like protein 10 (Homo sapiens)
# TEST PROTOCOL: TR3 peptide-Bcl-B binding displacers, biochemical primary FP assay, phenotype converters (AID 1240);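 also: 0% = Bcl-B with tracer peptide and DMSO and 100% = tracer peptide lacking Bcl-B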
# CONDITIONS: GST-Bcl-B / FITC-TR3 peptide fluorescence polarization; stronger effect = higher value; compound at 3.75 mg/L
About 800 (1.6%) of roughly 50,000 compounds showed an effect of 50% or more. The list comes from a sample in which strong results are over-represented; it also holds close analogues and randomly drawn compounds.
Could you give me the number in %? Just the number is fine.

Illustrative cases are given below, each with its answer.
O=C(c1nn2c(C(F)(F)F)cc(-c3ccccc3)nc2c1Cl)N1CCCC1    22.7
O=C(Nc1cccc(-c2nc3cc(Cl)ccc3o2)c1)c1ccc(Cl)cc1    0.2
Cc1ccc(-c2nc3cc(Cl)cc(Cl)c3o2)cc1NC(=O)c1ccc2c(c1)OCCO2    6.6
CCOc1ccc(N2C(=O)S/C(=C\c3ccc(C)cc3)C2=O)cc1    -5.8
Cc1ccc(-c2nn(-c3ccccc3)cc2/C=C(\C#N)C(N)=O)o1    61.7
O=c1c2c(nc3cc(-c4ccco4)[nH]n13)CCS2    78.9
COc1ccc(/C=C/C(=O)Nc2ccc(Br)cc2C(=O)c2cc(OC)c(OC)c(OC)c2)cc1OC    1.6
O=C(O)/C=C\C(=O)Nc1ccccc1SC(F)(F)F    9.3
COc1cc(OC)cc(C(=O)Nc2cc(-c3nc4cc(Cl)ccc4o3)ccc2C)c1    110
Cc1ccc(/C=C2\SC(=S)N(c3ccc(F)cc3)C2=O)o1    101

Ask: Give displacement (Bcl-2-like protein 10 (Homo sapiens)) of the following compound: `CCOc1ccc(/C=C/C(=O)c2ccc(F)cc2)cc1`
Reply: -0.4

Ask: What do we get for `Cc1ccc(OCC(=O)O/N=C(\N)Cc2ccc([N+](=O)[O-])cc2)c(C)c1` ?
Reply: 5.9

Ask: What do we get for `O=C1S/C(=C\c2ccc(Br)o2)C(=O)N1c1ccc(Cl)cc1` ?
Reply: 88.9

Ask: What do we get for `CCO/C=C1\C(=O)N(CC)c2ccccc21` ?
Reply: 19.1

Measured values drawn from PubChem BioAssay AID1240 for this set.
